Origin of values: ChEMBL document CHEMBL1765026

# experimental_target: Steroidogenic factor 1 (Homo sapiens, UniProt Q13285)
# Sequence (Q13285 whole entry): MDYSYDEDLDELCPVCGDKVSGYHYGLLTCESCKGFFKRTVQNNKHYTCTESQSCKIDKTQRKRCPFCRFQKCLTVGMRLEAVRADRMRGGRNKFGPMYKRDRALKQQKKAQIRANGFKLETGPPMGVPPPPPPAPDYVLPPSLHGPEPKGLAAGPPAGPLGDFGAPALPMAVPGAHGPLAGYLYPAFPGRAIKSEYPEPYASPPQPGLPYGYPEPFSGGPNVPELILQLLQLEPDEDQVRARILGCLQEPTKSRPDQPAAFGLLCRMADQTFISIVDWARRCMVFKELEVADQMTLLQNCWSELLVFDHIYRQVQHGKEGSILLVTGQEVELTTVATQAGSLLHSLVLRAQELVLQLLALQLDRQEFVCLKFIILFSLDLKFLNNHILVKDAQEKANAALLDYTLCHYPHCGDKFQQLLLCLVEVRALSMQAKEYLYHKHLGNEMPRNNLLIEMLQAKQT
# assay_notes: Agonist activity at human SF-1 assessed as DAX1 1-23 peptide recruitment by TR-FRET assay relative to control
pEC50: −log10 of the molar value.
property: pEC50

[
  {
    "compound": "C=C(c1ccccc1)[C@@]12C[C@H](OC(C)=O)C[C@@H]1CC(CCCCCC)=C2c1ccccc1 (racemic)",
    "reported_result": 6.70
  },
  {
    "compound": "C=C(c1ccccc1)[C@@]12CCC[C@@H]1CC([Si](C)(C)c1ccccc1)=C2c1ccccc1 (racemic)",
    "reported_result": 7.20
  },
  {
    "compound": "C=C(c1ccccc1)[C@@]12CCC[C@@H]1CC(CCCCCC)=C2C1CCCCC1 (racemic)",
    "reported_result": 6.70
  },
  {
    "compound": "CCCCCCC1=C(c2ccccc2)[C@]2(OCCC)CCC[C@@H]2C1 (racemic)",
    "reported_result": 6.70
  },
  {
    "compound": "CCCCCCC1=C(c2ccccc2)[C@]2(OCC(C)CC)CCC[C@@H]2C1 (mixture of isomers)",
    "reported_result": 6.70
  },
  {
    "compound": "C=C(CCCC)[C@@]12CCC[C@@H]1CC(CCCCCC)=C2c1ccccc1 (racemic)",
    "reported_result": 6.70
  }
]

----------
# experimental_target: Steroidogenic factor 1 (Homo sapiens, UniProt Q13285)
# assay_notes: Agonist activity at human SF-1 assessed as DAX1 1-23 peptide recruitment by TR-FRET assay relative to control
Activity calls are given as the source filed them. The calls are words filed in the database; no cut-off is given here.
property: pEC50

[
  {
    "compound": "C=C(c1ccccc1)[C@@]12CN(Cc3ccccc3)C[C@@H]1CC(CCCCCC)=C2c1ccccc1 (racemic)",
    "reported_result": "inactive"
  },
  {
    "compound": "CCCCCCO[C@@]12CCC[C@@H]1CC(CCCCCC)=C2c1ccccc1 (racemic)",
    "reported_result": "inactive"
  },
  {
    "compound": "C=C(c1ccc(-c2ccccc2)cc1)[C@@]12CCC[C@@H]1CC(CCCCCC)=C2c1ccccc1 (racemic)",
    "reported_result": "inactive"
  },
  {
    "compound": "C=C(c1ccc(C(C)(C)C)cc1)[C@@]12CCC[C@@H]1CC(CCCCCC)=C2c1ccccc1 (racemic)",
    "reported_result": "inactive"
  },
  {
    "compound": "C=C(c1ccc(CCCC)cc1)[C@@]12CCC[C@@H]1CC(CCCCCC)=C2c1ccccc1 (racemic)",
    "reported_result": "inactive"
  }
]

Quick note, pEC50 for C=C(c1ccccc1)[C@@]12CCC[C@@H]1CC=C2c1ccccc1 (racemic) landed at inactive

Quick note, pEC50 for C=C(CCCCCC)[C@@]12CCC[C@@H]1CC(CCCCCC)=C2c1ccccc1 (racemic) landed at inactive

Quick note, pEC50 for C=C(c1ccc(CC)cc1)[C@@]12CCC[C@@H]1CC(CCCCCC)=C2c1ccccc1 (racemic) landed at inactive

----------
# experimental_target: Steroidogenic factor 1 (Homo sapiens, UniProt Q13285)
# assay_notes: Agonist activity at human SF-1 assessed as DAX1 1-23 peptide recruitment by TR-FRET assay
# Assay type: functional
property: Ratio

[
  {
    "molecule": "C=C(CCCC)[C@@]12CCC[C@@H]1CC(CCCCCC)=C2c1ccccc1 (racemic)",
    "Ratio": 0.76
  }
]

P: CCCCCCC1=C(c2ccccc2)[C@]2(OCCC)CCC[C@@H]2C1 (racemic)
Q: C=C(c1ccccc1)[C@@]12C[C@H](OC(C)=O)C[C@@H]1CC(CCCCCC)=C2c1ccccc1 (racemic)
# input Given P and Q , report the one with the higher recorded Ratio. Your answer should be the label attached to the chosen record.
# output P
